assay.details: UV absorbance and fluorescence of ribonucleoside analogues in DMSO (molar extinction coefficient, quantum yield)
Type: physicochemical
compounds and their reported Wavelength at fluorescence emission maximum
The answer is to be given in nm; state only the numeric part.

Reference set, count: 5
{"cpd.smiles": "Nc1ncnc2c1nc(C#Cc1ccc(C(F)(F)F)cc1)n2[C@@H]1O[C@H](CO)[C@@H](O)[C@H]1O", "measured": 436}
{"cpd.smiles": "Nc1nc2c(nc(C#Cc3ccccc3)n2[C@@H]2O[C@H](CO)[C@@H](O)[C@H]2O)c(=O)[nH]1", "measured": 416}
{"cpd.smiles": "CC(=O)c1ccc(C#Cc2nc3c(=O)[nH]c(N)nc3n2[C@@H]2O[C@H](CO)[C@@H](O)[C@H]2O)cc1", "measured": 509}
{"cpd.smiles": "Nc1ncnc2c1nc(C#Cc1ccc(F)cc1)n2[C@@H]1O[C@H](CO)[C@@H](O)[C@H]1O", "measured": 396}
{"cpd.smiles": "Nc1nc2c(nc(C#Cc3ccccc3C(F)(F)F)n2[C@@H]2O[C@H](CO)[C@@H](O)[C@H]2O)c(=O)[nH]1", "measured": 421}

Returns the measured Wavelength at fluorescence emission maximum for the input compound. Input: CC(=O)c1ccc(C#Cc2nc3c(N)ncnc3n2[C@@H]2O[C@H](CO)[C@@H](O)[C@H]2O)cc1 493
